tested on: Escherichia coli; assay: Antibiotic activity against Escherichia coli NBRC 12734 by microplate dilution assay; format: functional
Quick list: MIC per entry.
assayMetric: MIC (mg/L)

[[record]]
testsmiles = "CC(C)C[C@@H]1NC(=O)[C@H](CCCN)NC(=O)[C@H](C(C)C)NC(=O)[C@@H](CCC(=O)O)NC(=O)[C@@H]2CCCN2C(=O)[C@@H](Cc2ccccc2)NC(=O)[C@H](CC(C)C)NC(=O)[C@H](CCCN)NC(=O)[C@H](C(C)C)NC(=O)[C@@H](CCC(=O)O)NC(=O)[C@@H]2CCCN2C(=O)[C@@H](Cc2ccccc2)NC1=O"
assaymetric = "MIC"
unittag = "mg/L"
operatorsymbol = ">"
endpointresult = 100

[[record]]
testsmiles = "CC(C)C[C@@H]1NC(=O)[C@H](CCCN)NC(=O)[C@H](C(C)C)NC(=O)[C@@H](CCCN)NC(=O)[C@@H]2CCCN2C(=O)[C@@H](Cc2ccccc2)NC(=O)[C@H](CC(C)C)NC(=O)[C@H](CCCN)NC(=O)[C@H](C(C)C)NC(=O)[C@@H](CCCN)NC(=O)[C@@H]2CCCN2C(=O)[C@@H](Cc2ccccc2)NC1=O"
assaymetric = "MIC"
unittag = "mg/L"
operatorsymbol = "="
endpointresult = 25


###

Quick list: MIC per entry.
tested on: Escherichia coli; assay: Antibiotic activity against Escherichia coli NBRC 12734 by microplate dilution assay; format: functional
assayMetric: MIC (µg/mL)

[[record]]
testsmiles = "CC(C)C[C@@H]1NC(=O)[C@H](CCCN)NC(=O)[C@H](C(C)C)NC(=O)[C@@H](CCCCN)NC(=O)[C@@H]2CCCN2C(=O)[C@@H](Cc2ccccc2)NC(=O)[C@H](CC(C)C)NC(=O)[C@H](CCCN)NC(=O)[C@H](C(C)C)NC(=O)[C@@H](CCCCN)NC(=O)[C@@H]2CCCN2C(=O)[C@@H](Cc2ccccc2)NC1=O"
assaymetric = "MIC"
unittag = "µg/mL"
operatorsymbol = "="
endpointresult = 25

[[record]]
testsmiles = "CC(C)C[C@@H]1NC(=O)[C@H](CCCN)NC(=O)[C@H](C(C)C)NC(=O)[C@@H](CCC(N)=O)NC(=O)[C@@H]2CCCN2C(=O)[C@@H](Cc2ccccc2)NC(=O)[C@H](CC(C)C)NC(=O)[C@H](CCCN)NC(=O)[C@H](C(C)C)NC(=O)[C@@H](CCC(N)=O)NC(=O)[C@@H]2CCCN2C(=O)[C@@H](Cc2ccccc2)NC1=O"
assaymetric = "MIC"
unittag = "µg/mL"
operatorsymbol = ">"
endpointresult = 100


###

test system: Bacillus subtilis; assay: Antibiotic activity against Bacillus subtilis NBRC 3513 by microplate dilution assay; format: functional
Non-standard residues stand in square brackets, D forms with d. Residues, ends and D or L forms follow the SMILES beside them. Orn = NCCC[C@H](N)C(=O)O
Quick list: MIC per entry.
assayMetric: MIC (µg/mL)

[[record]]
compound = "CC(C)C[C@@H]1NC(=O)[C@H](CCCN)NC(=O)[C@H](C(C)C)NC(=O)[C@@H](C(C)C)NC(=O)[C@@H]2CCCN2C(=O)[C@@H](Cc2ccccc2)NC(=O)[C@H](CC(C)C)NC(=O)[C@H](CCCN)NC(=O)[C@H](C(C)C)NC(=O)[C@@H](C(C)C)NC(=O)[C@@H]2CCCN2C(=O)[C@@H](Cc2ccccc2)NC1=O"
endpointresult = 6.25

[[record]]
compound = "CC(C)C[C@@H]1NC(=O)[C@H](CCCN)NC(=O)[C@H](C(C)C)NC(=O)[C@@H](CCC(N)=O)NC(=O)[C@@H]2CCCN2C(=O)[C@@H](Cc2ccccc2)NC(=O)[C@H](CC(C)C)NC(=O)[C@H](CCCN)NC(=O)[C@H](C(C)C)NC(=O)[C@@H](CCC(N)=O)NC(=O)[C@@H]2CCCN2C(=O)[C@@H](Cc2ccccc2)NC1=O"
endpointresult = 12.5

[[record]]
compound = "CC(C)C[C@@H]1NC(=O)[C@H](CCCN)NC(=O)[C@H](C(C)C)NC(=O)[C@@H](CC(C)C)NC(=O)[C@@H]2CCCN2C(=O)[C@@H](Cc2ccccc2)NC(=O)[C@H](CC(C)C)NC(=O)[C@H](CCCN)NC(=O)[C@H](C(C)C)NC(=O)[C@@H](CC(C)C)NC(=O)[C@@H]2CCCN2C(=O)[C@@H](Cc2ccccc2)NC1=O"
endpointresult = 6.25

[[record]]
compound = "CC(C)C[C@@H]1NC(=O)[C@H](CCCN)NC(=O)[C@H](C(C)C)NC(=O)[C@@H](C)NC(=O)[C@@H]2CCCN2C(=O)[C@@H](Cc2ccccc2)NC(=O)[C@H](CC(C)C)NC(=O)[C@H](CCCN)NC(=O)[C@H](C(C)C)NC(=O)[C@@H](C)NC(=O)[C@@H]2CCCN2C(=O)[C@@H](Cc2ccccc2)NC1=O (cyclo(L[dF]P[dA]V[Orn]L[dF]P[dA]V[Orn]))"
endpointresult = 12.5

[[record]]
compound = "CC(C)C[C@@H]1NC(=O)[C@H](CCCN)NC(=O)[C@H](C(C)C)NC(=O)[C@@H](Cc2cnc[nH]2)NC(=O)[C@@H]2CCCN2C(=O)[C@@H](Cc2ccccc2)NC(=O)[C@H](CC(C)C)NC(=O)[C@H](CCCN)NC(=O)[C@H](C(C)C)NC(=O)[C@@H](Cc2cnc[nH]2)NC(=O)[C@@H]2CCCN2C(=O)[C@@H](Cc2ccccc2)NC1=O"
endpointresult = 12.5

[[record]]
compound = "CC(C)C[C@@H]1NC(=O)[C@H](CCCN)NC(=O)[C@H](C(C)C)NC(=O)[C@@H]2CCCN2C(=O)[C@@H](Cc2ccccc2)NC(=O)[C@H](CC(C)C)NC(=O)[C@H](CCCN)NC(=O)[C@H](C(C)C)NC(=O)[C@@H]2CCCN2C(=O)[C@@H](Cc2ccccc2)NC1=O [GRAMICIDIN S] (cyclo(L[dF]PV[Orn]L[dF]PV[Orn]))"
endpointresult = 3.13

